- Tested on: Human recombinant MMP-1 (Homo sapiens, UniProt P03956)
- Construct: made in house; host or cells: MMP-1-transfected HT-1080 cells (spent media)
- Sequence (P03956 100-469): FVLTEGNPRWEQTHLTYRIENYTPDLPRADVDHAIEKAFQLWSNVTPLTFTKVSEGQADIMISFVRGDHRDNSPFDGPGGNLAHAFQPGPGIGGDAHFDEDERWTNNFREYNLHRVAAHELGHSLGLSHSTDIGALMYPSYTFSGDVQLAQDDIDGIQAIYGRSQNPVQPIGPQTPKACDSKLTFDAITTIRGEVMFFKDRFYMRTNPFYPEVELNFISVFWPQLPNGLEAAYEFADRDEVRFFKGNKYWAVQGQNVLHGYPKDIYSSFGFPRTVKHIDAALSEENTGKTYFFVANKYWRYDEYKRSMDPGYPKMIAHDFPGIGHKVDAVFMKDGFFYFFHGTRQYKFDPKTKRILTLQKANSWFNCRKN
- Test description: In vitro MMP inhibition analysis (fluorogenic peptide substrate cleavage), Ki
- Type: biochemical
- Condition notes: Table 2
Measured attribute: Ki

The following compounds have reported results that may help.
1) O=C(NO)C1(S(=O)(=O)c2ccc(-c3cnc(C4CCCC4)cn3)cc2)CCOCC1 ... > 10 µM
2) O=C(N1CCOCC1)N1CCC(C(=O)NO)(S(=O)(=O)c2ccc(-c3ccc(CCC(F)(F)C(F)(F)F)cc3)cc2)CC1 ... 6.37 µM
3) CCCCc1cnc(-c2ccc(S(=O)(=O)C3(C(=O)NO)CCN(CCOC)CC3)cc2)cn1 ... > 10 µM

Alright, here's another compound for you.
Which Ki is reported for this compound? CCN1CCC(C(=O)NO)(S(=O)(=O)c2ccc(-c3noc(-c4ccncc4)n3)cc2)CC1 > 10 µM
